Origin of values: ChEMBL document CHEMBL5252597

Target: Cytochrome P450 1A2 (Mus musculus, UniProt P00186)
Sequence (P00186 whole entry): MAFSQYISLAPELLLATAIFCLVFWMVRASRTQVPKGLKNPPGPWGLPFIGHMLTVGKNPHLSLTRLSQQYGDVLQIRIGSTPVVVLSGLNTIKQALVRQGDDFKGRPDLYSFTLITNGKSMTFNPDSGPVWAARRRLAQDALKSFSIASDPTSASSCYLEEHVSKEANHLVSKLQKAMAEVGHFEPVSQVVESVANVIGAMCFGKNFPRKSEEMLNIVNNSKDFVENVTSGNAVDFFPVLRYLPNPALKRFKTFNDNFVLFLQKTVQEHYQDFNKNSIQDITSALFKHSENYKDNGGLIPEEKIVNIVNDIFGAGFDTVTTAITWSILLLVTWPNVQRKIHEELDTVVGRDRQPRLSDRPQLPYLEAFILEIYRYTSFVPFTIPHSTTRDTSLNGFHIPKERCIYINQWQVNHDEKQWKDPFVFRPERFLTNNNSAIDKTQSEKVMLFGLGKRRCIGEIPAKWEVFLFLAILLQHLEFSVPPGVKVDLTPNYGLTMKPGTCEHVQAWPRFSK
readout type: IC50 (µM)
Give your result in µM as a bare value.

Supply recorded IC50 for Cc1cccc(-c2[nH]c(NCc3cccc(F)c3)nc2-c2ccc3c(cnn3C)c2)n1 here.
71.5

* * *

Quick reference for pIC50 among some compounds
target: Activin receptor type-1 (Homo sapiens, UniProt Q04771); experiment: Inhibition of human ALK2 by […] assay
Sequence (Q04771 whole entry): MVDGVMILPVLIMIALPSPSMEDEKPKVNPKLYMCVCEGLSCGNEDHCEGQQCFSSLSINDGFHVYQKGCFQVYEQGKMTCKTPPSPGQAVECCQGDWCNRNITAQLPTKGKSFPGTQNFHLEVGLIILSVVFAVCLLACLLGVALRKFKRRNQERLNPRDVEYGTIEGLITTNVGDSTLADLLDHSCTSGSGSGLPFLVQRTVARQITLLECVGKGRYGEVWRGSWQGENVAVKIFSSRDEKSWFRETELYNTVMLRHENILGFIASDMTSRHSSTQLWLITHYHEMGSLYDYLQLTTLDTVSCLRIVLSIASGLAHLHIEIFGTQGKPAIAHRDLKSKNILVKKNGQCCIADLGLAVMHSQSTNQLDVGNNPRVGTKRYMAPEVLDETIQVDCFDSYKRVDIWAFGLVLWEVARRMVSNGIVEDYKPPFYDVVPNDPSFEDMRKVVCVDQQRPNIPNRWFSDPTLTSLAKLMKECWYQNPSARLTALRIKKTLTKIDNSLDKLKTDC
pIC50: −log10 of the molar value.

• Cc1cccc(-c2[nH]c(NCc3cccc(F)c3)nc2-c2ccc3c(cnn3C(F)F)c2)n1 = < 5.00

Moving on to the next compound.
Give me measured pIC50, please, for this compound: Cc1cccc(-c2[nH]c(NCc3cccc(F)c3)nc2-c2ccc3[nH]ncc3c2)n1
< 5.00

* * *

biological target: Cytochrome P450 2C19 (Homo sapiens, UniProt P33261)
Sequence (P33261 whole entry): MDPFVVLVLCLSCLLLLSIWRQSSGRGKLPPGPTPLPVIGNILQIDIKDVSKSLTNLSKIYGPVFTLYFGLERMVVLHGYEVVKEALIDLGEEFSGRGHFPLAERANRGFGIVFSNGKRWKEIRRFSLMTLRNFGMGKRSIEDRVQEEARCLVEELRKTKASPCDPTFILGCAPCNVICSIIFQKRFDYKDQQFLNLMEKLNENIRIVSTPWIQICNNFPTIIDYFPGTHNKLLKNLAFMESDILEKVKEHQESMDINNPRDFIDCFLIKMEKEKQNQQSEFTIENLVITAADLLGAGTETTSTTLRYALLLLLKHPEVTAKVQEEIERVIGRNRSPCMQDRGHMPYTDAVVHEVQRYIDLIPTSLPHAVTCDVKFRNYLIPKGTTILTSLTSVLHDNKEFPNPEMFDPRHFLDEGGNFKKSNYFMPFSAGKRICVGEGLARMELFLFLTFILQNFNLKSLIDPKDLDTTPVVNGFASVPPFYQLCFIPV
readout type: IC50 (µM)
A number alone suffices; assume µM.

• Cc1cccc(-c2[nH]c(NCc3ccc(F)cc3F)nc2-c2ccc3[nH]ncc3c2)n1 = 3.3

# lookup: Cytochrome P450 2C19 (Homo sapiens, UniProt P33261) IC50, key = Cc1cccc(-c2[nH]c(NCc3ccc(Cl)cc3F)nc2-c2ccc3[nH]ncc3c2)n1
3.1
